Where do the numbers come from? From the supplement of paper PMC7877785.

Below is a list of entries, each paired with its recorded self-splicing fitness (ln) value.
Experiment: self-splicing fitness, log relative to wild type (ln ratio); higher = more splicing; Tetrahymena group I intron in knt gene, E. coli kanamycin selection, DiMSum; sequences stand for … in CUCUCU…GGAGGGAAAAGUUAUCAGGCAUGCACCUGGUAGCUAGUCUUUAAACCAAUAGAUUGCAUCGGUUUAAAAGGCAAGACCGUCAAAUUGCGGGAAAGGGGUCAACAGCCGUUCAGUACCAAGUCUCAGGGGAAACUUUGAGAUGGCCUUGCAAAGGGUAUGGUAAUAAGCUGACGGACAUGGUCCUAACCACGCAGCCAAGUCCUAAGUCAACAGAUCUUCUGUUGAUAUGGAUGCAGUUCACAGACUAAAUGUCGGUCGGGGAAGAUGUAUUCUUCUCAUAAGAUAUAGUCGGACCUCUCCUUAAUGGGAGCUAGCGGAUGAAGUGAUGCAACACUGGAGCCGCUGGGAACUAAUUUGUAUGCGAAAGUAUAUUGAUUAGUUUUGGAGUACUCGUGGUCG;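 also: selection with 25 µg/mL kanamycin versus none on LB agar overnight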
Conditions: 30 °C
# output: bare number, no unit

Answered examples (5):
GCUAAGCAAUAUUACGCCCG	-0.889
UCCCAGCAAUAUUACGAGCC	-2.16
CCCCAGCAAUAUUACGAUCA	-1.97
CCGCAGCAAUAUUACGCGAA	-2.87
GCUUAGCAAUAUUACGUAUG	-1.6

get_value(item= ACAGAGCAAUAUUACGCUGG , readout=self-splicing fitness (ln)) returns -3.47

get_value(item= AACGAGCAAUAUUACGAAGU , readout=self-splicing fitness (ln)) returns -2.75

get_value(item= AGGCAGCAAUAUUACGACAU , readout=self-splicing fitness (ln)) returns -0.21

* * *

Assay: self-splicing fitness, log relative to wild type (ln ratio); higher = more splicing; Tetrahymena group I intron in knt gene, E. coli kanamycin selection, DiMSum; sequences stand for … in CUCUCU…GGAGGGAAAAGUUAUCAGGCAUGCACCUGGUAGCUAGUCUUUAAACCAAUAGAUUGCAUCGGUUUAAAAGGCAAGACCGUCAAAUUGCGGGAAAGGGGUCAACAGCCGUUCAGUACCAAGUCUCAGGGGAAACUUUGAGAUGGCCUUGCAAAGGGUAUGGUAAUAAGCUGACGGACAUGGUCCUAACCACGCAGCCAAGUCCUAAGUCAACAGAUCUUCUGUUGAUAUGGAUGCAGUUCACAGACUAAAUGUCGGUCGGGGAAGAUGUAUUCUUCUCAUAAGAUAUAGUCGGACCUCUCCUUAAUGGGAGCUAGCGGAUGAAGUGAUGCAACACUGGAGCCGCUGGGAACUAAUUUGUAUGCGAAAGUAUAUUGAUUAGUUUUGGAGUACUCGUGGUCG
Details: 30 °C
Below is a list of entries, each paired with its recorded self-splicing fitness (ln) value.
# output: bare number, no unit

get_value(item= GUGUAGCAAUAUUACGCCUG , readout=self-splicing fitness (ln)) returns -3.94

get_value(item= ACUAAGCAAUAUUACGCCAG , readout=self-splicing fitness (ln)) returns -0.955

get_value(item= CAUGAGCAAUAUUACGGCUA , readout=self-splicing fitness (ln)) returns -2.75

get_value(item= AGCGAGCAAUAUUACGACGG , readout=self-splicing fitness (ln)) returns -3.17

get_value(item= GUGUAGCAAUAUUACGACUA , readout=self-splicing fitness (ln)) returns -0.34

get_value(item= AUACAGCAAUAUUACGUUUA , readout=self-splicing fitness (ln)) returns -1.73

get_value(item= UAAUAGCAAUAUUACGCGCA , readout=self-splicing fitness (ln)) returns -1.13

get_value(item= UUUUAGCAAUAUUACGCAUG , readout=self-splicing fitness (ln)) returns -1.3

get_value(item= GCAAAGCAAUAUUACGACGC , readout=self-splicing fitness (ln)) returns -1.27

get_value(item= CUGCAGCAAUAUUACGGAAA , readout=self-splicing fitness (ln)) returns -2.27

get_value(item= ACACAGCAAUAUUACGCGAC , readout=self-splicing fitness (ln)) returns -2.72
